# assayProcedure: yeast display, Sf9 membrane polyspecificity reagent, FACS + sequencing; frameworks hold sequencing errors
metricName: polyreactivity (PSR sort gate)

QVQLVESGGGLVQAGGSLRLSCAASGSTFEYYAMGWYRQAPGKERELLATISIDGRTNYADSVKGRFTISRDNAKNTVYLQLYSVKPEDTAVYYCGARPYWRHRYDYWGQGTQVTVSS; low polyreactivity
QVQLVESGGGLVQAGGSLRLSCAASGITFTRYTMGWYRPAPGKERELVAAITGGSTYYADSVKGRFTISRDNAKNTVYLQMNSLKPEDTAVYYCAAAYESPYIQPLDYWGQGTQVTVSS; high polyreactivity
QVQLVESGGGLVQAGGSLRLSCAASGFIFSVNTMGWYRQAPGKERELVAAISGSGGSTYYADSVKGRFTISRDNAKITVYFQMNSLKPDDTAVYYCAARYTVTYDYWGQCTQVTVSS; high polyreactivity
QVQLVESGGGLVQAGGSLRLSCAASGSIFSWYAMGWYRQAPGKERELVAAITWTGGSTYYADSVKGRFTISRDNAKNTVYLQMLSLKPEDTAVYYCAARRVVYRYYWYSAYDYWGQGTQVTVSS; high polyreactivity
QVQLVESGGGLVQAGGSLRLSCAASGRIFSYYDMGWYRQAPGKERELVATIRWSTSSTYADSVKGRFTISRDNAKPTVYLQMNILKPEDTAVYYCNAQYSQVNGYDYWGQGTQVTVSS; low polyreactivity
QVQLVESGGGLVQAGGSLRLSCAASGYTFTINTMGWYRQAPGKERELVAAITWRGGSTYYADSVKGRFTISRDNANNTVYLQMNSLKPEDTAVYYCNKDYYITTTTFDYWGQGTQVTVSS; low polyreactivity
QVQLVESGGGLVQAGGSLRISCAASGFIFTYYAMGWYRQAPGKERELVAAITKSGTSTYYADSVKGRFTISRDNAKNTVYLQMNSLKPEDTAVYYCNAVLWWDWEYDFYYWGQGTQVTVSS; high polyreactivity
QVQLVESGGGLVQAGGSLRLSCAASGRIFRYYAMGWYRQAPGKERELVAAITRGGSTNYADSVKGRFTISRDNAKNTVYLQMNSLKPEDSAVFYCATRESCYPRWMDYWGQGTQVTVSS; high polyreactivity
QVQLVESGGGLVQAGGSLRLTCAASGFIFKANAMGWYRQAPGKERELVASITFGGDSTYYADSVKGRFTISRDNAKNTVYLHMNSLKPEDTAVYYCNTRRRSYRTYYYWGQGTQVTVLS; low polyreactivity
QVQLVESGGGLVQAGGSLRLSCAASGSTFENNAMGWYRQAPGKERELVASSTNYADSVKGRFTISRDNAKNTVYLQMNSLKPEDTAVYYCNLDTNSSYEFNSWGQGTQVTVSS; low polyreactivity
QDQLVESGGGLVQAGGSLRLSCAASGRTFYRYTMGWYRQAPGKESELVAGISWRGGTTYYADSVKGRFTISRDNAKNTVYLQMNSLKPEDTAVYYCAAKAGYRYGSLAYYKYDYWGQGTQVTVSS; high polyreactivity
QVQLVESGGGLVQAGGSLRLSCAASGRIFVGYAMGWYRQAPGKVREFFAAITWSGGSTSYADSVKGRFTISRDNAKNTVYLQKNSLKPEDTAVYYCNARRYYYFGLSLYEYDYWGQGTQVTVSS; low polyreactivity
QVQLVESGGGLVQAGGSLRLSCAASGLTFPLYVMGWYRQAPGKARELVATITGGGSTTYADSVKGRFTISRDNAKNTVYFQMNSLKPEDTAVYYCAADFVFVATPLRYDYWGPGTQVTVSS; low polyreactivity
QVQLVESGGGLVQAGGSLRLSCAASGSIFRGNAMGWYRQAPGKERELVASISYSGGSTYYADSVKGRFTISRDTAKNTVYLQMNSLKPEDTAVYYCAADESVAYPYSGYQYYRHIYDYWGQGTQVTVSS; low polyreactivity
QVQLVESGGGLVQAGGSLRLSCAASGIIFSYNVMGWYRQAPGKEREFVADITWNGGSTYYADSVKGRFTISRDNAKNTVYLQMNSLKPEDTAVYYCATGWPWYSNYASAYDYWGQGTQVTVSS; low polyreactivity
QVQLVESGGGLVQAGGSLRLSCAASGRIFAFYAMGWYRPAPGKEREFVAAITYSGGNTNYADSVKGRFTISRDNAKNTVYIEMNSLKPEDTPVYYCAADLVYGVYYQEDYWGQGTQVTVSS; low polyreactivity
QVQLVESVGGLVQAGGSLRLSCAASGITFPYYAMGWYRQAPGKERELVAAISRGDSTYYADSVKGRFTISRDNAKNTVYLQMNSLKPEDTAVYYCAARYGRYWSSCGSWTPYGYWGQGTQVTVSS; high polyreactivity
QVQLVESGGGLVQAGGSLRLSCAASGFTSSQYAMGWYRQAPGKERELVAAITSSGSSTYYADSVKGRFTISRDNAKNTVYLQMNSLKPEDTAVYYCNTDAYHRYPGSVWYYYWGQGTQVTVSS; high polyreactivity
QVQLVESGGGLVQAGGSLRLSCAASGSIFWTNAMGWYRQAPGKERELVAAITSGGNTNYADSVKGRFTISRDNAKNTVYLQMNSLKPEDTAVYYCAARYGRGWRRTYTQYDSWGQGTQVTVSS; low polyreactivity
QFQLVESGGGLVQSGGSLRLSCAASGLIFVFYAMGWYRQAPGKERELVAAISTSGDRTYYADSVKGRFTISRDNAKNTVYLQMNSLKPEDTAVYYCAAGRRKVPYSREYYYWGQGTQVTVSS; high polyreactivity
QVQLVESGGGLVQAGGSLRLSCAASGSTFDYNTMGWYIQAPGKERELVAAISESGGSTYYADSVKGRFTISRDNAKNTVYLQMNSLKPEDTAVYYCATDDFGGYFGEYDYWGQGTQVTVSS; low polyreactivity
